Origin of measurements: ChEMBL document CHEMBL1201862

- System: UACC-62
- assay explanation: NCI tumour cell line growth inhibition, 48 h
Calls of active or inactive are those of the source. Cut-off read from the data, not from the text of the source: active = GI50 up to about 1.1 µM and inactive = higher.
assay endpoint: GI50

Task item: Reported GI50 for UACC-62, given Cn1c2ccccc2c(=O)c2cccc(C(=O)NC(CS)C(=O)O)c21 (configuration not stated) ?
Reply: > 100 µM (inactive)

Task item: Query COc1cc2c(C)cc(O)cc2c2cc(O)c(C)cc12 next
Reply: 12 µM (inactive)

Task item: Queued: CN1C(=O)N(c2nc3ccccc3[nH]2)C(C)(C)C1=O
Reply: > 100 µM (inactive)

Task item: Same read-out for OC(C1CCCC1=N/N=C1/CCCC1C(O)(C(F)(F)Cl)C(F)(F)Cl)(C(F)(F)Cl)C(F)(F)Cl (configuration not stated) ?
Reply: > 10 µM (inactive)

Task item: Check CC1(C)CCCCCCC2OC2CCCCCC(C)(C)C1=O (configuration not stated) too.
Reply: 19 µM (inactive)

Task item: Same again, this time with CC(CCCOC(c1ccccc1)(c1ccccc1)c1ccccc1)OC(=O)Nc1ccccc1 (configuration not stated)
Reply: 12.8 µM (inactive)

Task item: For O=c1c2ccccc2c2ccccc2c(=O)n1Cc1ccc2c(c1)OCO2 then?
Reply: 21.6 µM (inactive)

Task item: Also, OC(c1ccccc1)C(F)(F)c1nc2ccccc2o1 (configuration not stated) please.
Reply: > 100 µM (inactive)

Task item: What do you have for COc1cc(C(C)c2cc3c(cc2OCCOCCOc2cc4c(cc2C(C)c2cc(OC)c(OC)c(OC)c2)OCO4)OCO3)cc(OC)c1OC (configuration not stated) ?
Reply: > 10 µM (inactive)

Task item: Also Cc1nn(C(=O)c2ccncc2)c2c1C(c1cccc([N+](=O)[O-])c1)SC(=N)N2 (configuration not stated) , if possible.
Reply: > 10 µM (inactive)

Task item: For Cc1cc(CN2CCCCC2)c(O)c(CN2CCCCC2)c1 then?
Reply: > 100 µM (inactive)

Task item: Moving on to the next compound: Oc1ccccc1C1=NOC(c2ccc(C(F)(F)F)cc2)C1 (configuration not stated)
Reply: > 50 µM (inactive)

Task item: Repeat for the following compound: Cc1c(OC(C)C(=O)O)ccc2c(-c3ccccc3)cc(=O)oc12 (configuration not stated)
Reply: > 100 µM (inactive)

Task item: Same for N=C(N)NS(=O)(=O)c1ccc(NNc2c3ccccc3nc3ccccc23)cc1
Reply: 11.9 µM (inactive)

Task item: Try this compound too: CC#CCCCC1(C)CCCNC1=S (configuration not stated)
Reply: > 10 µM (inactive)

Task item: Param item: CCOC(=O)c1cn(Cc2ccccc2)c(=O)n1Cc1ccccc1
Reply: > 100 µM (inactive)

Task item: Would you kindly repeat that for CC1(Br)S(=O)(=O)OCCOS1(=O)=O ?
Reply: > 100 µM (inactive)

Task item: Input C[C@H](OC(=O)/C=C/c1ccc(O)c(O)c1)[C@H](C)OC(=O)/C=C/c1ccc(O)c(O)c1
Reply: 2.93 µM (inactive)

Task item: # repeat for O=c1c2ccccc2[nH]c2c(Cl)cc(Cl)c(NC3CCCCC3)c12
Reply: 16.6 µM (inactive)

Task item: // repeat for Nn1c(CCCCCCCCc2nnc(-c3c(O)ccc4ccccc34)n2N)nnc1-c1c(O)ccc2ccccc12 and report
Reply: > 100 µM (inactive)

Task item: Now this one: COc1cc(C2c3c(ccc4ccccc34)C(=O)C3CCC(=O)N32)cc(OC)c1O (configuration not stated)
Reply: > 25 µM (inactive)

Task item: Query O=C(O)C(NCc1ccccc1)C(NCc1ccccc1)C(=O)O (configuration not stated) next
Reply: > 100 µM (inactive)
